System: HL-1
Assay: relative cell viability (CellTiter-Glo) vs DMSO control (% of DMSO control); higher = more viable cells
Settings: oxygen condition: hypoxia 48 h (1% O2) + reoxygenation 24 h; 200 nM
Where a name gives a salt, the structure may show the parent alone.
Form field: relative cell viability (one value per entry).
OBSERVED_PROPERTY: relative cell viability

{"COMPOUND": "C[N+](C)(C)CCCCCC[N+](C)(C)C [Hexamethonium bromide]", "SYSTEM_TESTED": "HL-1", "RECORDED_MEASUREMENT": 99.3}
{"COMPOUND": "CCOC(=O)C1=C(COCCN)NC(C)=C(C(=O)OC)C1c1ccccc1Cl (stereo not given) [Amlodipine]", "SYSTEM_TESTED": "HL-1", "RECORDED_MEASUREMENT": 101}
{"COMPOUND": "Cc1ccc(C)c(OCCCC(C)(C)C(=O)O)c1", "SYSTEM_TESTED": "HL-1", "RECORDED_MEASUREMENT": 104}
{"COMPOUND": "CN1C[C@@H]2C[C@H]1CN2c1cc2c(cc1F)c(=O)c(C(=O)O)cn2C1CC1 [Danofloxacin Mesylate]", "SYSTEM_TESTED": "HL-1", "RECORDED_MEASUREMENT": 104}
{"COMPOUND": "O=C(CCCCCCC(=O)Nc1ccccc1)NO", "SYSTEM_TESTED": "HL-1", "RECORDED_MEASUREMENT": 105}

###

Tested on: HL-1
Assay: relative cell viability (CellTiter-Glo) vs DMSO control (% of DMSO control); higher = more viable cells
Settings: oxygen condition: hypoxia 48 h (1% O2) + reoxygenation 24 h; 5000 nM
Counter-ions that a name gives are not always drawn.
Form field: relative cell viability (one value per entry).

{"COMPOUND": "CN(C)CC/C=C1/c2ccccc2Sc2ccc(Cl)cc21", "relative cell viability": 115}
{"COMPOUND": "CC1(C)S[C@@H]2[C@H](NC(=O)[C@H](N)c3ccc(O)cc3)C(=O)N2[C@H]1C(=O)O", "relative cell viability": 114}
{"COMPOUND": "OCC(CO)N[C@H]1C[C@](O)(CO)[C@@H](O)[C@H](O)[C@H]1O", "relative cell viability": 113}
{"COMPOUND": "O=S(=O)(O)c1cc(O)ccc1O [Ethamsylate]", "relative cell viability": 109}
{"COMPOUND": "Nc1ccc(/N=N/c2ccccc2)c(N)n1 [Phenazopyridine HCl]", "relative cell viability": 112}
{"COMPOUND": "COC(=O)C1=C(C)NC(C)=C(C(=O)OC2CCCN(Cc3ccccc3)C2)C1c1cccc([N+](=O)[O-])c1 (centres undefined) [Benidipine hydrochloride]", "relative cell viability": 25}
{"COMPOUND": "CCOC(=O)c1c(C)n(C)c2ccc(O)cc12 [Mecarbinate]", "relative cell viability": 113}
{"COMPOUND": "CS(=O)(=O)c1ccc([C@@H](O)[C@@H](CO)NC(=O)C(Cl)Cl)cc1", "relative cell viability": 104}
{"COMPOUND": "CN1CCN(C2=Nc3cc(Cl)ccc3Nc3ccccc32)CC1", "relative cell viability": 99.9}
{"COMPOUND": "CCCCC(=O)O[C@H]1CC[C@H]2[C@@H]3CCc4cc(O)ccc4[C@H]3CC[C@]12C [Estradiol valerate]", "relative cell viability": 108}
{"COMPOUND": "CCCC1O[C@@H]2C[C@H]3[C@@H]4CCC5=CC(=O)C=C[C@]5(C)[C@H]4[C@@H](O)C[C@]3(C)[C@]2(C(=O)CO)O1 (some centres undefined) [Budesonide]", "relative cell viability": 96.5}
{"COMPOUND": "CN1C2=CC(=O)/C(=N\\NC(N)=O)C=C2CC1S(=O)(=O)O (centres undefined) [Carbazochrome sodium sulfonate]", "relative cell viability": 112}
{"COMPOUND": "OCCOCCN1CCN(C(c2ccccc2)c2ccc(Cl)cc2)CC1 (centres undefined) [Hydroxyzine 2HCl]", "relative cell viability": 114}
{"COMPOUND": "CCN(CCCc1ccccc1)CCCc1ccccc1 [Alverine Citrate]", "relative cell viability": 110}
{"COMPOUND": "NC[C@H](O)c1ccc(O)c(O)c1 [Noradrenaline bitartrate monohydrate]", "relative cell viability": 111}
{"COMPOUND": "CC(C)(Sc1cc(C(C)(C)C)c(O)c(C(C)(C)C)c1)Sc1cc(C(C)(C)C)c(O)c(C(C)(C)C)c1", "relative cell viability": 110}
{"COMPOUND": "COc1ccc2[nH]c([S@@+]([O-])Cc3ncc(C)c(OC)c3C)nc2c1 [Esomeprazole sodium]", "relative cell viability": 106}
{"COMPOUND": "CN1C(CCl)Nc2cc(Cl)c(S(N)(=O)=O)cc2S1(=O)=O (centres undefined) [Methyclothiazide]", "relative cell viability": 110}
{"COMPOUND": "O=c1c(-c2ccc(O)cc2)coc2cc(O)ccc12", "relative cell viability": 113}
{"COMPOUND": "CCCC(=O)OCOC(=O)C1=C(C)NC(C)=C(C(=O)OC)C1c1cccc(Cl)c1Cl (centres undefined)", "relative cell viability": 98}
{"COMPOUND": "O=C(O)c1ccc(-n2nc(-c3ccccc3O)nc2-c2ccccc2O)cc1", "relative cell viability": 88.1}
{"COMPOUND": "Cc1onc(-c2ccccc2Cl)c1C(=O)N[C@@H]1C(=O)N2[C@@H]1SC(C)(C)[C@@H]2C(=O)O [Cloxacillin sodium]", "relative cell viability": 107}
{"COMPOUND": "CCCCOc1ccc(CC(=O)NO)cc1", "relative cell viability": 117}
{"COMPOUND": "Cc1ncc(CO)c(CO)c1O [Pyridoxine hydrochloride]", "relative cell viability": 109}
{"COMPOUND": "O=C(CCCN1CC=C(n2c(=O)[nH]c3ccccc32)CC1)c1ccc(F)cc1", "relative cell viability": 103}
{"COMPOUND": "Cc1nc2n(c(=O)c1CCN1CCC(c3noc4cc(F)ccc34)CC1)CCCC2", "relative cell viability": 113}
{"COMPOUND": "CCCSc1nc(N[C@@H]2C[C@H]2c2ccc(F)c(F)c2)c2nnn([C@@H]3C[C@H](OCCO)[C@@H](O)[C@H]3O)c2n1", "relative cell viability": 123}
{"COMPOUND": "CC(C)[C@H](N)C(=O)OCC(CO)OCn1cnc2c(=O)nc(N)[nH]c21 (some centres undefined) [valganciclovir hydrochloride]", "relative cell viability": 121}
{"COMPOUND": "CC[C@]1(O)C[C@@H]2CN(CCc3c([nH]c4ccccc34)[C@@](C(=O)OC)(c3cc4c(cc3OC)N(C)[C@H]3[C@@](O)(C(=O)OC)[C@H](OC(C)=O)[C@]5(CC)C=CCN6CC[C@]43[C@@H]65)C2)C1", "relative cell viability": 37.2}
{"COMPOUND": "CC(COc1ccccc1)N(CCCl)Cc1ccccc1 (centres undefined) [Phenoxybenzamine HCl]", "relative cell viability": 95.4}
{"COMPOUND": "N=C(N)NCCN1CCCCCCC1 [Guanethidine Sulfate]", "relative cell viability": 113}
{"COMPOUND": "CCc1ccc(CCOc2ccc(CC3SC(=O)NC3=O)cc2)nc1 (centres undefined)", "relative cell viability": 116}
{"COMPOUND": "Oc1ncnc2[nH]ncc12", "relative cell viability": 109}
{"COMPOUND": "CN1CCC(=C2c3ccccc3C=Cc3ccccc32)CC1 [Cyproheptadine HCl]", "relative cell viability": 110}

Origin of values: the supplement of paper PMC8371130
